Assay Details: Bioavailability in rat
Type: ADME, organism-based
Settings: in vivo

{"Sample Smiles": "NC[C@H](O)C[PH](=O)O", "bioavailability [%]": 78}

###

Assay Details: Displacement of [3H]GABA from GABABreceptor in rat brain synaptic membranes
Assay type: cell membranes, Membrane
Listed here are compounds together with their documented Ki.

{"Compound": "CP(=O)(O)C[C@H](O)CN", "Ki": "840 nM"}
{"Compound": "NCCC[PH](=O)O", "Ki": "15 nM"}
{"Compound": "NCC(F)C[PH](=O)O (centres undefined)", "Ki": "10 nM"}
{"Compound": "CP(=O)(O)C[C@H](F)CN", "Ki": "4.3 nM"}
{"Compound": "NCC(O)C[PH](=O)O (centres undefined)", "Ki": "94 nM"}
{"Compound": "NC[C@@H](F)C[PH](=O)O [LESOGABERAN]", "Ki": "5.1 nM"}
{"Compound": "CP(=O)(O)C[C@@H](O)CN", "Ki": "180 nM"}
{"Compound": "CP(=O)(O)C[C@@H](F)CN", "Ki": "480 nM"}
{"Compound": "NC[C@H](O)C[PH](=O)O", "Ki": "50 nM"}
{"Compound": "CP(=O)(O)CC(=O)CN", "Ki": "200 nM"}
{"Compound": "NC[C@H](F)C[PH](=O)O", "Ki": "70 nM"}
{"Compound": "CP(=O)(O)CC(F)CN (centres undefined)", "Ki": "14 nM"}
{"Compound": "NC[C@@H](O)C[PH](=O)O", "Ki": "2100 nM"}
{"Compound": "NCC(=O)C[PH](=O)O", "Ki": "48 nM"}

###

Assay Details: Bioavailability in dog
Type: ADME, organism-based, Canis lupus familiaris
Settings: in vivo
Quantity: bioavailability (%)

{"Sample Smiles": "NC[C@H](O)C[PH](=O)O", "Readout Number": 88}
